system: HT-29; assay: Growth inhibition of human HT-29 cells after 72 hrs by MTT assay; assay type: functional; details: HT-29, 72 h
Recorded Endpoint: GI50

QUERY: Can you look up the measured GI50 of O=C1C=C(c2ccccc2)Nc2cccc3ccn1c23 for me?
RESULT: > 10 µM

QUERY: Look up GI50: CCCCCCCCCCCCCCCCCCn1ccc2c3c(=O)cc(C)[nH]c3ccc21
RESULT: > 10 µM

QUERY: Reported GI50, molecule CCn1ccc2ccc3c(=O)cc(-c4ccccc4)[nH]c3c21 : ____
RESULT: > 10 µM

QUERY: Which GI50 value is on record for CCCCCCCCCCCCCCCCCCn1ccc2c3c(=O)cc(-c4ccccc4)[nH]c3ccc21 ?
RESULT: > 10 µM
